# Test system: IGROV-1
# PROCEDURE_DETAILS: SRB colorimetric assay of cell growth and viability, IGROV-1
# Assay type: cell-based, human
# PROTOCOL_CONDITIONS: 48 hours exposure, SRB
Reported LC50 (concentration causing 50% net cell killing) is given for each of the following compounds.
Just the number please, in nM, no unit attached.

Worked examples, 2 compounds total:
>  <COMPOUND>
C/C=C1\NC(=O)[C@H](Cc2ccccc2)NC(=O)[C@@H](C(C)C)NC(=O)[C@@H]([C@@H](C)CC)NC(=O)[C@H](NC(=O)[C@H](NC(=O)[C@H](CCCNC(=O)C(F)(F)F)NC(=O)[C@H]2CCCN2C(=O)[C@H](NC(=O)[C@@H](NC(=O)[C@@H](NC(=O)[C@H](NC(=O)CC[C@@H](C)CC)C(C)C)[C@@H](C)OC(=O)C(F)(F)F)C(C)C)C(C)C)[C@@H](C)CC)[C@@H](C)OC(=O)[C@H](C(C)C)NC1=O

>  <UNITS_SYMBOL>
nM

>  <ASSAY_RESULT>
550

$$$$
>  <COMPOUND>
C/C=C1\NC(=O)[C@H](Cc2ccccc2)NC(=O)[C@@H](C(C)C)NC(=O)[C@@H]([C@@H](C)CC)NC(=O)[C@H](NC(=O)[C@H](NC(=O)[C@H](CCCN)NC(=O)[C@H]2CCCN2C(=O)[C@H](NC(=O)[C@@H](NC(=O)[C@@H](NC(=O)[C@H](NC(=O)CC[C@@H](C)CC)C(C)C)[C@@H](C)OC(=O)C(F)(F)F)C(C)C)C(C)C)[C@@H](C)CC)[C@@H](C)OC(=O)[C@H](C(C)C)NC1=O

>  <UNITS_SYMBOL>
nM

>  <ASSAY_RESULT>
3050

$$$$

Next:
Consider the compound shown here: C/C=C1\NC(=O)[C@H](Cc2ccc([N+](=O)[O-])cc2)NC(=O)[C@@H](C(C)C)NC(=O)[C@@H]([C@@H](C)CC)NC(=O)[C@H](NC(=O)[C@H](NC(=O)[C@H](CCCN)NC(=O)[C@H]2CCCN2C(=O)[C@H](NC(=O)[C@@H](NC(=O)[C@@H](NC(=O)[C@H](NC(=O)CC[C@@H](C)CC)C(C)C)[C@@H](C)O)C(C)C)C(C)C)[C@@H](C)CC)[C@@H](C)OC(=O)[C@H](C(C)C)NC1=O [Compound 73, [Phe(4-NO2)^3, (4S)-MeHex^14]-KF] What is its recorded LC50 (concentration causing 50% net cell killing)?
488

---

# System: LoVo
# PROCEDURE_DETAILS: SRB colorimetric assay of cell growth and viability, LoVo
# Type: cell-based, human
# PROTOCOL_CONDITIONS: LOVO; 48 hours exposure
Where a SMILES comes first, the peptide text is derived from it. Bridges are numbered along the chain shown (N, C = ends). [ ]: non-standard residue; d: D form. The star is where a group is joined. d(aIle) = CC[C@H](C)[C@@H](N)C(=O)O; d(aThr) = C[C@@H](O)[C@@H](N)C(=O)O; hCha = N[C@@H](CCC1CCCCC1)C(=O)O; Hexanoyl(5-Me) = CC(C)CCCC(=O)*; Phg = N[C@H](C(=O)O)c1ccccc1; Orn = NCCC[C@H](N)C(=O)O; Dhb = C/C=C(\N)C(=O)O
REPORTED_PROPERTY: TGI LOVO (Molar)
Just the number please, in Molar, no unit attached.

Worked examples, 2 compounds total:
>  <COMPOUND>
C/C=C1\NC(=O)[C@H](c2ccccc2)NC(=O)[C@@H](C(C)C)NC(=O)[C@@H]([C@@H](C)CC)NC(=O)[C@H](NC(=O)[C@H](NC(=O)[C@H](CCCN)NC(=O)[C@H]2CCCN2C(=O)[C@H](NC(=O)[C@@H](NC(=O)[C@@H](NC(=O)[C@H](NC(=O)CCCC(C)C)C(C)C)[C@@H](C)O)C(C)C)C(C)C)[C@@H](C)CC)[C@@H](C)OC(=O)[C@H](C(C)C)NC1=O [Compound 87, [Phg^3]-KF] ({Hexanoyl(5-Me)}-[dV]TV[dV][dP][Orn][d(aIle)][d(aThr)][d(aIle)][dV][Phg][Dhb]V; ester 8-C)

>  <TARGET_UNDER_TEST>
LoVo

>  <TGI LOVO / Molar>
1.90E−06

$$$$
>  <COMPOUND>
C/C=C1\NC(=O)[C@H](Cc2ccccc2)NC(=O)[C@@H](C(C)C)NC(=O)[C@@H]([C@@H](C)CC)NC(=O)[C@H](NC(=O)[C@H](NC(=O)[C@H](CCCNC(=O)CCCC[C@@H]2SC[C@@H]3NC(=O)N[C@@H]32)NC(=O)[C@H]2CCCN2C(=O)[C@H](NC(=O)[C@@H](NC(=O)[C@@H](NC(=O)[C@H](NC(=O)CCCC(C)C)C(C)C)[C@@H](C)O)C(C)C)C(C)C)[C@@H](C)CC)[C@@H](C)OC(=O)[C@H](C(C)C)NC1=O [Compound 99, [Orn(Biot)^8]-Kahalalide F]

>  <TARGET_UNDER_TEST>
LoVo

>  <TGI LOVO / Molar>
2.53E−07

$$$$

Next:
// lookup TGI LOVO | system=LoVo | key= C/C=C1\NC(=O)[C@H](CCC2CCCCC2)NC(=O)[C@@H](C(C)C)NC(=O)[C@@H]([C@@H](C)CC)NC(=O)[C@H](NC(=O)[C@H](NC(=O)[C@H](CCCN)NC(=O)[C@H]2CCCN2C(=O)[C@H](NC(=O)[C@@H](NC(=O)[C@@H](NC(=O)[C@H](NC(=O)CCCC(C)C)C(C)C)[C@@H](C)O)C(C)C)C(C)C)[C@@H](C)CC)[C@@H](C)OC(=O)[C@H](C(C)C)NC1=O [Compound 63] ({Hexanoyl(5-Me)}-[dV]TV[dV][dP][Orn][d(aIle)][d(aThr)][d(aIle)][dV][hCha][Dhb]V; ester 8-C)
2.40E−07
